This collection of values is drawn from the supplement of paper PMC6555819.

System: RARb homodimer (NR concentration 270 nM)
Method Description: PBM binding z-score (relative to random genomic background probes); higher = stronger binding; sequences stand for … in GC…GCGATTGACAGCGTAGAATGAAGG
Tag: 1 if measured PBM binding z-score is not below 2, 0 if it is.

# check: PBM binding z-score of "ATATGTAGGTTATCAGGTCATTCAGTTTGCGCAT" is greater than or equal to 2
1

Has "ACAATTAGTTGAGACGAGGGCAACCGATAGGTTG" a recorded PBM binding z-score greater than or equal to 2?
0

Answer whether PBM binding z-score of "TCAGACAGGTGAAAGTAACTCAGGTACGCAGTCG" is greater than or equal to 2.
0

Kindly determine if PBM binding z-score recorded for "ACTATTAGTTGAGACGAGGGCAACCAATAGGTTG" is above or exactly 2.
0

Could you verify whether the entry "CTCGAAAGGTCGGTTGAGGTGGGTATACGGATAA" shows PBM binding z-score of no less than 2?
0

Assess whether reported PBM binding z-score for "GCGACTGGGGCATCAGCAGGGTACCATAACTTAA" sits at 2 or higher.
0

Given the entry "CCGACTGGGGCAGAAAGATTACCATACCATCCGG" , answer whether its PBM binding z-score meets or surpasses 2.
0

Dear colleague, could you confirm whether "AGTCACAGTTCACTAGGTAACGTAAGATTCAGCT" has PBM binding z-score at or above 2?
0

PBM binding z-score >= 2 for "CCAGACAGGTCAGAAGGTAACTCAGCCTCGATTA" ?
1

Textbook exercise: given the entry "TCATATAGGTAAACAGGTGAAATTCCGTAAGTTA" , state whether its PBM binding z-score is greater than or equal to 2.
0

Determine whether measured PBM binding z-score meets or exceeds 2 for "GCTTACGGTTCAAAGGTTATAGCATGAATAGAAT"
0

Is PBM binding z-score for "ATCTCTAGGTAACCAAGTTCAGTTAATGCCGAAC" at or above 2?
0

Check the entry "TCATATACGTAAAAGGTGAAAGTCGGTGTGGTAA" : does PBM binding z-score equal or exceed 2?
0

Is PBM binding z-score at least 2? Consider "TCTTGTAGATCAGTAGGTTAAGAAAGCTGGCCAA"
0

hey, is PBM binding z-score for this one >= 2? "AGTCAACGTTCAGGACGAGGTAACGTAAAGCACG"
0

Has "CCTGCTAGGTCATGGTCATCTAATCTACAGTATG" a recorded PBM binding z-score greater than or equal to 2?
1

Entry "GGAACGAGGGCATTCGAGTCGATAGCATGGCGAT" : is its PBM binding z-score no less than 2?
0

Decide: is the reported value of PBM binding z-score for "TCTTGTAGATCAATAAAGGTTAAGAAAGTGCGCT" equal to or greater than 2?
0

# bool: PBM binding z-score of "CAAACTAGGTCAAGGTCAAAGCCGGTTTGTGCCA" >= 2
1

Could you verify whether the entry "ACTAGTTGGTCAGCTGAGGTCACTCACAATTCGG" shows PBM binding z-score of no less than 2?
1

Does the reported PBM binding z-score for "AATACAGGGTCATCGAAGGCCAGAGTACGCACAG" fall at or above the 2 mark?
1

Check this sequence for PBM binding z-score at or above 2: "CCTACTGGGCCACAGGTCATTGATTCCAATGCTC"
1

# bool: PBM binding z-score of "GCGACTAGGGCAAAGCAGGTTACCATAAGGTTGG" >= 2
0

State whether the measured PBM binding z-score reaches 2, counting equality as reaching it, for "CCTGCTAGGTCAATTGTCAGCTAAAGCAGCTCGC"
1

Can "CTCGACAGGTCGGTTGAGGTGAGTATACGGATAA" be said to have PBM binding z-score at or above 2?
0

In plain terms: is recorded PBM binding z-score at least 2 for "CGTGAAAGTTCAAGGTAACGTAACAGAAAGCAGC" ?
1

Is reported PBM binding z-score greater than or equal to 2 here: "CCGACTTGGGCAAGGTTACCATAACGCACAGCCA"
0

Item "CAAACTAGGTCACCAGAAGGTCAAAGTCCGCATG" with PBM binding z-score of 2 or above?
1

Could you verify whether the entry "CCCACTGGGGCAAGGTTACCATAACGCACAGCCA" shows PBM binding z-score of no less than 2?
0

Dear colleague, could you confirm whether "CCGACTGGGCCAAAGGTTACCATACTCAGTACGA" has PBM binding z-score at or above 2?
1

Decide: PBM binding z-score of "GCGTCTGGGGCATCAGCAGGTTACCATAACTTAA" >= 2?
0

Item "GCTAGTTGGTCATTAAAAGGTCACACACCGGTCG" with PBM binding z-score of 2 or above?
1

Decide: PBM binding z-score of "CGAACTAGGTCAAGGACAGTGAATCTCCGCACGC" >= 2?
1

Please indicate if the recorded PBM binding z-score for "ATCTCTAGGTAAAAGTTCATTGAATCCCGAGGAT" meets or exceeds 2.
1

Decide: PBM binding z-score of "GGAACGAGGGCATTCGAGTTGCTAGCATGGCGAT" >= 2?
0

Record "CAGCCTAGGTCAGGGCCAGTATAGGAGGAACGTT" ; criterion: PBM binding z-score no lower than 2. Met?
1

Please indicate if the recorded PBM binding z-score for "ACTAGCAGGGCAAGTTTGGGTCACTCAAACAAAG" meets or exceeds 2.
1

Can "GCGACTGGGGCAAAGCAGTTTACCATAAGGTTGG" be said to have PBM binding z-score at or above 2?
0

Reported PBM binding z-score at or above 2? "ACTAGTTGGTCAGCTGAGTTCACACACAATTCGG"
1

Tell me whether PBM binding z-score is at least 2 here: "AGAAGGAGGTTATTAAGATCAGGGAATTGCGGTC"
0

Can "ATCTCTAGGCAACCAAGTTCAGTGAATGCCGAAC" be said to have PBM binding z-score at or above 2?
0

Determine whether measured PBM binding z-score meets or exceeds 2 for "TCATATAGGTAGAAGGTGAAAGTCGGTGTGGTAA"
0

Hello, I need to know if "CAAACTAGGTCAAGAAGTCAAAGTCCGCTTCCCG" has measured PBM binding z-score not below 2. Thanks!
1

Exam item: decide whether the reported PBM binding z-score for "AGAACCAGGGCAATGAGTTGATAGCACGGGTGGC" is at least 2.
0

Evaluate "GCCGCTAGGTCAACTGATGGTCAGCTAAAGCTCG" : PBM binding z-score at minimum 2?
1

Threshold query (PBM binding z-score >= 2) on "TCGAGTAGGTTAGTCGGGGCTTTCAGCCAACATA"
0

Check this sequence for PBM binding z-score at or above 2: "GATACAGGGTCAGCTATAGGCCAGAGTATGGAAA"
1

Is the recorded value of PBM binding z-score equal to or greater than 2 for this sequence? "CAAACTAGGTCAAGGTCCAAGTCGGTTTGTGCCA"
1

Hello, I need to know if "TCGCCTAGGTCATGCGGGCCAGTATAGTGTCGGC" has measured PBM binding z-score not below 2. Thanks!
1

Reported PBM binding z-score at or above 2? "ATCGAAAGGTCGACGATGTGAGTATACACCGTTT"
1
